# MEASUREMENT PROTOCOL: Kinetic solubility in PBS (HPLC solubility assay)
# RUN CONDITIONS: PBS, aqueous buffer, kinetic from dmso stock, Average solubility, Tables S1–S3, average of two samples
OUTCOME MEASURE: solubility (µM)
One number for each entry, in µM.

>>> readout_value("O=C(O)Cc1ccc(C(C(=O)NC2CCCC2)N(C(=O)c2cc(-c3ccccc3)n(-c3ccccc3)n2)c2ccc3c(c2)CCC3)cc1 (centres unmarked) [Compound 4, reference compound]")
238

Request: Specify measured solubility for O=C(O)CSc1nc2c([nH]c3ccccc32)c(=O)n1-c1ccccc1 [Compound 6, reference compound] .
Result: 254
